Data origin, for the record: patent US9474275B2

Measured LogP by item
settings: method [a]: LC-MS at pH 2.7, 0.1% formic acid in water / acetonitrile, linear gradient 10% to 95% acetonitrile

These recorded examples may help you get a feel for the data.
>  <MOLECULE>
CC(NC(=C(C#N)C(=O)C1CCCC1)c1cn(C)nc1C(F)F)C1CC1 (stereo not shown)

>  <LogP>
3.58^[a]

$$$$
>  <MOLECULE>
CCCC(=O)C(C#N)=C(NC(C)CC(C)C)c1cccnc1Cl (racemic)

>  <LogP>
3.99^[a]

$$$$
>  <MOLECULE>
CCCCC(=O)C(C#N)=C(NC(C)C(C)C)c1cccnc1Cl (stereo not shown)

>  <LogP>
4.06^[a]

$$$$

// switching to the query molecule
Record COCC(=O)C(C#N)=C(NC(C)c1nccs1)c1cn(C)nc1C(F)F (stereo not shown) , field LogP: 1.76^[a]
